- TARGET_DESC: T1, human TL1A (Fitzgerald #30R-AT070) (human, UniProt O95150 72-251, limits assumed)
- T1 construct: Coated on the ELISA plate at 1 ug/mL; also called TNFSF15
- T1 sequence (looked up): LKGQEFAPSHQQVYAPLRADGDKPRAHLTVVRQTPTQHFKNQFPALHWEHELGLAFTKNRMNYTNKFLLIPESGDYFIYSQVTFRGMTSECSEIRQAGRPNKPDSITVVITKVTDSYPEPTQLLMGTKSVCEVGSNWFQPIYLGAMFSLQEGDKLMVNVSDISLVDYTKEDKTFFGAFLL
- EXPERIMENT: ELISA titration, coated human TL1A, culture supernatant
Catalogue of binders with associated Kd
The response must be a number in nM with no trailing unit.

binder="A85 (antibody, human IgG1, V domains shown, human IgG1/kappa (pFuse vectors), culture supernatant) VH: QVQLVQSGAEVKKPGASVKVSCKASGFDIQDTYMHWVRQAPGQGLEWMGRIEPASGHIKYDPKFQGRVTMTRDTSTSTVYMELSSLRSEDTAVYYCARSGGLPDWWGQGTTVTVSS VL: EIVLTQSPGTLSLSPGERATLSCRASSSVSYMYWYQQKPGQAPRLLIYATSNLASGVPDRFSGSGSGTDFTLTISRLEPEDFAVYYCQQWEGNPRTFGGGTKLEIK" readout_label=Kd observed=0.13

Dear colleague, please send me the reported Kd for A115 (antibody, human IgG1, V domains shown, human IgG1/kappa (pFuse vectors), culture supernatant) VH: QVQLVQSGAEVKKPGASVKVSCKASGFDIQDTYMHWVRQAPGQGLEWMGRIEPASGHIKYDPKFQVRATMTRDTSTSTVYMELSSLRSEDTAVYYCARSGGLPDWWGQGTTVTVSS VL: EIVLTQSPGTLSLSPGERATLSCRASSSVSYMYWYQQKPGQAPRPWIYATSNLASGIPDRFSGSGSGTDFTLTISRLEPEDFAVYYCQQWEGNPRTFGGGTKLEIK when you can.
0.058
